Test system: K4 kissing-loop RNA reporter;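 also: bound reporter read as fluorescence of individual clusters on recovered sequencing chips by microscopy, with normalized cluster intensities fitted with a binding model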
Assay: apparent KD of K4 kissing-loop reporter; higher = weaker reporter binding
Details: Eterna round: R107; input ligand: arginine 13.2 mM

Sequence | Measured On | Unit Of Measurement | apparent KD of K4 kissing-loop reporter
CAAAUGUUGUCAGGAUAUGAGCGCAGUGAUGUUGCGGUUGUAUUUAUGACUGGAGCAGCGUAAGCCUCAGAAGGGACAAGUUGCC [Qubioran] | K4 kissing-loop RNA reporter | nM | 92.2
GUUAUGGACCUUUUGAUCGUUCGUAGCGAUACCAGACAAUGGGCAGUCCCUUGGCAGCGCUAAUUGAGUGAUGUUCAAACGUGCA [theeternabot_exclusion_KL_Theo_A_46] | K4 kissing-loop RNA reporter | nM | 309
GCCGUACGCAUGGAUACCAGCUGCGAAGUGAUGUUUCGGGCGAUCAAAGGAUCGCCCUACAGCCCUUGGCAGCCAUGCGUACGGC | K4 kissing-loop RNA reporter | nM | 117
UGUGUUUACCUGACUCAGUGAUGUUGAGAAGGAGCGUGCGAACGCACAGGUAGGUCGCUCAACCUAAAUUCAGGUGAGCACUAAA | K4 kissing-loop RNA reporter | nM | 443
UAUUAAUUGACGGCCGCCACUAUUGUGAUUUAUUUGUUUGAGUGAUGUUUUGAUGUUUGAUUUUGUAGGACCGGGUUAUGUGUUA [zwzcmullin] | K4 kissing-loop RNA reporter | nM | 768
CGCGCCCGGCCGGAUACCAGUGACCCGCUGGGAACCGCGGGCCCAGAGUGAUGUUCGGGACACCCUUGGCAGCCGCCUGGGCGUG [#2 Same State - Theophylline B Attempt #5 (HarryS)] | K4 kissing-loop RNA reporter | nM | 364
